target: UniProtKB P43220; test: Luciferase reporter assay, HEK293/CRE-Luc/hGLP1R cells (Example 11); type: cell-based; parameters: engineered to express full-length human GLP1R, cynomolgus GLP1R; expressed in transfected cells; host or cells: HEK293/CRE-Luc; details: Table 11; Experiment A
Sequence (P43220 24-463): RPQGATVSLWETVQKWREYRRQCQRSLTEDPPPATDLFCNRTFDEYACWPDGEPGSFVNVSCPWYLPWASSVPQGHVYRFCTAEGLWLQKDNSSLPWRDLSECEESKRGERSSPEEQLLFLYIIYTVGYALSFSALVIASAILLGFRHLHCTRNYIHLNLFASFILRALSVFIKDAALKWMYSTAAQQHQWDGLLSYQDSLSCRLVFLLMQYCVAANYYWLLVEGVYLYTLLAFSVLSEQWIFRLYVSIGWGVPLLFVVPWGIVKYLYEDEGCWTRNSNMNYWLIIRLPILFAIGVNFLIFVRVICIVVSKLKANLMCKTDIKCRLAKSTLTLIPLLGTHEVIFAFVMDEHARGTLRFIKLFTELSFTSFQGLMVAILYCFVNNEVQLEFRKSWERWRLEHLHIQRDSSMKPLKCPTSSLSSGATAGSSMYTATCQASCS
Where a SMILES comes first, the peptide text is derived from it. [ ]: non-standard residue; d: D form. Bip(2'-Et,4'-O(CH2)4NH2) = CCc1cc(OCCCCN)ccc1-c1ccc(C[C@H](N)C(=O)O)cc1; Nva(5-(3,5-Me2Ph)) = Cc1cc(C)cc(CCC[C@H](N)C(=O)O)c1; Ala(1H-tetrazol-5-yl) = N[C@@H](Cc1nnn[nH]1)C(=O)O; αMePhe(2-F) = C[C@](N)(Cc1ccccc1F)C(=O)O
Assay Endpoint: pEC50
Scale: pEC50 equals -log10([C]), with [C] in mol/L.

Input CCc1cc(OCCCCN)ccc1-c1ccc(C[C@H](NC(=O)[C@H](CC(=O)O)NC(=O)[C@H](CO)NC(=O)[C@@H](NC(=O)[C@](C)(Cc2ccccc2F)NC(=O)[C@@H](NC(=O)CNC(=O)[C@H](Cc2nn[nH]n2)NC(=O)[C@H](C)NC(=O)[C@H](Cc2c[nH]cn2)NC(=O)[C@@H](N)CCC(N)=O)[C@@H](C)O)[C@@H](C)O)C(=O)N[C@@H](CCCc2cc(C)cc(C)c2)C(N)=O)cc1 [P13] (H-QHA[Ala(1H-tetrazol-5-yl)]GT[αMePhe(2-F)]TSD[Bip(2'-Et,4'-O(CH2)4NH2)][Nva(5-(3,5-Me2Ph))]-NH2) , output reported pEC50.
9.45
